Just for reference, ChEMBL document CHEMBL1124865 is where these values come from.

Tested on: Escherichia coli
Assay: In vivo efficacy against Escherichia coli infected mice treated at 1 hr and 5 hr post infection
Assay type: functional
measuredParameter: ED50

{"molecule": "CO/N=C(\\C(=O)N[C@@H]1C(=O)N2C(C(=O)[O-])=C(C[n+]3cccc(CC(=O)O)c3)CS[C@H]12)c1csc(N)n1 (stereo in doubt; 24)", "measuredParameter": "ED50", "endpointValue": "0.09 mg/kg"}
{"molecule": "CO/N=C(\\C(=O)N[C@@H]1C(=O)N2C(C(=O)[O-])=C(C[n+]3ccc(CC(=O)NO)cc3)CS[C@H]12)c1csc(N)n1 (stereo in doubt; 9)", "measuredParameter": "ED50", "endpointValue": "<0.3 mg/kg"}
{"molecule": "CO/N=C(\\C(=O)N[C@@H]1C(=O)N2C(C(=O)[O-])=C(C[n+]3ccc(CC(=O)NO)cc3)CS[C@H]12)c1csc(N)n1 (stereo in doubt; 12)", "measuredParameter": "ED50", "endpointValue": "<0.16 mg/kg"}
{"molecule": "CO/N=C(\\C(=O)N[C@@H]1C(=O)N2C(C(=O)[O-])=C(C[n+]3cccc(CC(=O)O)c3)CS[C@H]12)c1csc(N)n1 (stereo in doubt; 17)", "measuredParameter": "ED50", "endpointValue": "<0.16 mg/kg"}
{"molecule": "CO/N=C(\\C(=O)N[C@@H]1C(=O)N2C(C(=O)[O-])=C(C[n+]3ccc(CC(=O)NO)cc3)CS[C@H]12)c1csc(N)n1 (stereo in doubt; 8)", "measuredParameter": "ED50", "endpointValue": "0.82 mg/kg"}

Let's switch to this molecule now.
Using Escherichia coli as the test system, report measured ED50 of CO/N=C(\C(=O)N[C@@H]1C(=O)N2C(C(=O)[O-])=C(C[n+]3ccc(CC(=O)NO)cc3)CS[C@H]12)c1csc(N)n1 (stereo in doubt; 20) .
<0.03 mg/kg
